Cited source for all entries: paper PMC12040169

# EXPERIMENT DESCRIPTION: in vitro
# MEASUREMENT CONTEXT: human, hela cells, % viability
MEASURE: viability at 28.5 h, 10 µM (%)

{"COMPOUND": "CC(C)(C)c1cc(Br)ccc1OCC(=O)Nc1nc[nH]n1 [CBK263379]", "MEASURE": "viability at 28.5 h, 10 µM", "READING": 96.1}
{"COMPOUND": "COc1ccc(S(=O)(=O)N2CC[C@H]3NC(=O)N(c4ccc(C(C)C)cc4)C(=O)[C@H]32)cc1 [CBK289290]", "MEASURE": "viability at 28.5 h, 10 µM", "READING": 107}
{"COMPOUND": "Cc1ccc(C(O)CN(C)Cc2c(C)nn(C)c2C)c(C)c1 (centres unmarked) [CBK282939]", "MEASURE": "viability at 28.5 h, 10 µM", "READING": 84.7}
{"COMPOUND": "O=C(CNS(=O)(=O)Cc1ccccc1[N+](=O)[O-])N1CCOCC1 [CBK042220]", "MEASURE": "viability at 28.5 h, 10 µM", "READING": 82.7}
{"COMPOUND": "CCCC/C=C\\c1nccnc1OCCn1cccc1 [CBK106891]", "MEASURE": "viability at 28.5 h, 10 µM", "READING": 104}
{"COMPOUND": "CCCCn1nccc1NC(=O)NC(C)c1ccncc1 (centres unmarked) [CBK304840]", "MEASURE": "viability at 28.5 h, 10 µM", "READING": 99.2}
{"COMPOUND": "Cc1ccc(C2=CCN(CC(=O)N3CCCCC3C)CC2)o1 (centres unmarked) [CBK283556]", "MEASURE": "viability at 28.5 h, 10 µM", "READING": 86.8}
{"COMPOUND": "CCOC(=O)c1[nH]c2ccccc2c1NS(=O)(=O)c1ccc(Br)cc1 [CBK047409]", "MEASURE": "viability at 28.5 h, 10 µM", "READING": 116}
{"COMPOUND": "O=C1CCc2c(Cc3c(Cl)cccc3Cl)c(O)nn21 [CBK083470]", "MEASURE": "viability at 28.5 h, 10 µM", "READING": 91.3}
{"COMPOUND": "Cc1n[nH]c(O)c1C(c1cccc([N+](=O)[O-])c1)c1c(C)n[nH]c1O [CBK264753]", "MEASURE": "viability at 28.5 h, 10 µM", "READING": 97.8}
{"COMPOUND": "O=C(O)CCC(=O)Nc1ccc(OC(F)F)cc1 [CBK264222]", "MEASURE": "viability at 28.5 h, 10 µM", "READING": 99.8}
{"COMPOUND": "O=S(=O)(O)CCCSCCCS(=O)(=O)O [CBK278307N]", "MEASURE": "viability at 28.5 h, 10 µM", "READING": 95.4}
{"COMPOUND": "Fc1ccc2[nH]c3c(c2c1)CCNC31CCN(CCOc2ccccc2)C1 (centres unmarked) [CBK085404T]", "MEASURE": "viability at 28.5 h, 10 µM", "READING": 98}
{"COMPOUND": "COc1ccc(-c2ccc(/C=N/NC(=O)c3ccncc3)o2)c([N+](=O)[O-])c1 [CBK262156]", "MEASURE": "viability at 28.5 h, 10 µM", "READING": 97.3}
{"COMPOUND": "Cn1ccnc1C1(O)CCN(C(=O)Cc2ccccc2F)CC1 [CBK283585]", "MEASURE": "viability at 28.5 h, 10 µM", "READING": 97.6}
{"COMPOUND": "OCCCNC(=S)NCCc1ccccc1 [CBK264869]", "MEASURE": "viability at 28.5 h, 10 µM", "READING": 99.7}
{"COMPOUND": "c1ccc(CC(Cc2nc3ccccc3[nH]2)c2nc3ccccc3[nH]2)cc1 (centres unmarked) [CBK150452]", "MEASURE": "viability at 28.5 h, 10 µM", "READING": 107}
{"COMPOUND": "O=C1N(c2ccc(Cl)cc2)Cc2nc(=O)[nH]n21 [CBK287899]", "MEASURE": "viability at 28.5 h, 10 µM", "READING": 91.6}
{"COMPOUND": "CCC(=O)N1CCCCC(NS(=O)(=O)c2ccc(-n3cccn3)cc2)C1 (centres unmarked) [CBK307398]", "MEASURE": "viability at 28.5 h, 10 µM", "READING": 82.5}
{"COMPOUND": "O=C(NC(c1ccccc1)c1cccnc1)C1CCN(C(=O)NCCc2cccs2)CC1 (centres unmarked) [CBK060313]", "MEASURE": "viability at 28.5 h, 10 µM", "READING": 78.3}

---

# EXPERIMENT DESCRIPTION: in vitro
# MEASUREMENT CONTEXT: human, hela cells, % viability
viability at 28.5 h, 10 µM overview
MEASURE: viability at 28.5 h, 10 µM

{"COMPOUND": "N=c1n(CC(=O)O)c2ccccc2n1Cc1ccc(Cl)cc1 [CBK262897B]", "READING": "89.5%"}
{"COMPOUND": "O=C(O)[C@H]1CN(C(=O)c2ccco2)C[C@@H]1c1ccccc1F", "READING": "80.6%"}
{"COMPOUND": "COc1cccc(C(=O)N2CCC(NC(=O)Cc3ccc(F)cc3)CC2)c1", "READING": "85%"}
{"COMPOUND": "CCn1ncc2c1CCCC2NC1CCN(c2ccccc2F)C1=O (stereo not shown)", "READING": "108%"}
{"COMPOUND": "O=c1[nH]c2ncc(-c3cccc(-c4ccccc4)c3)nc2n1Cc1ccccc1", "READING": "96.1%"}
{"COMPOUND": "CN(C)CCN(C)C(=O)c1ccc(-c2ccc3c(c2)OCO3)nc1N(C)C", "READING": "92.7%"}
{"COMPOUND": "Cc1n[nH]c(C)c1CNC(=O)C1(c2ccccc2F)CC1", "READING": "96.4%"}
{"COMPOUND": "CC(=O)N1CCC2(C/C=C/C[C@H]3CN(CC(N)=O)CC[C@H]3NC(=O)CNC2=O)CC1", "READING": "97.6%"}
{"COMPOUND": "O=c1[nH]c(SCc2c(Cl)cccc2Cl)nc2ccnn12", "READING": "92.8%"}
{"COMPOUND": "O=C(Nc1ccc(F)cc1)N[C@H]1[C@H](O)[C@@H](N2CCCCC2)[C@@H]2OC[C@H]1O2", "READING": "98.5%"}
{"COMPOUND": "COc1ccc(-c2cnc(N)c(N[C@@H](C)c3ccccc3)n2)c(OC)c1OC", "READING": "84.9%"}
{"COMPOUND": "CN(C)CCCOc1ccc2c(c1)Sc1ccccc1CC2=O", "READING": "95.4%"}
{"COMPOUND": "N#CCCCN1CCC(Oc2nccnc2OCc2ccccc2C(F)(F)F)CC1", "READING": "102%"}
{"COMPOUND": "CC(C)(C)C(=O)CN1CCC2(CC1)OCCc1c2[nH]c2ccc(F)cc12", "READING": "95.8%"}
{"COMPOUND": "COc1ccccc1NC(=S)NCCc1ccccn1", "READING": "91.2%"}
{"COMPOUND": "COc1ccc2cc(C(=O)N3Cc4cnn(CCO)c4C3)n(C)c2c1", "READING": "94.5%"}
{"COMPOUND": "CC(CN(C)C(=O)c1c[nH]nn1)Oc1ccc(Cl)c(Cl)c1 (stereo not shown)", "READING": "87.5%"}
{"COMPOUND": "O=C(c1ccc(-c2ccc(OCC3CCN(c4ncccn4)CC3)cn2)cc1)N1CCOCC1", "READING": "91.8%"}
{"COMPOUND": "Cc1cc2ncc3c(n2n1)CC1CCC3N1Cc1ccccc1 (stereo not shown)", "READING": "104%"}

---

Below, each entry is listed alongside its reported viability at 28.5 h, 10 µM.
# EXPERIMENT DESCRIPTION: in vitro
# MEASUREMENT CONTEXT: human, hela cells, % viability

{"COMPOUND": "Cc1cc(NC(=O)c2cccc(C(F)(F)F)c2)c2ccccc2n1", "UNITS TEXT": "%", "viability at 28.5 h, 10 µM": 90}
{"COMPOUND": "CNc1nc(SCC(=O)Nc2ccc(Cl)c(Cl)c2)nc(N2CCOCC2)n1", "UNITS TEXT": "%", "viability at 28.5 h, 10 µM": 85.3}
{"COMPOUND": "CN(C)CCNC(=O)c1cc(-c2ccncc2)nc2ccc(Br)cc12", "UNITS TEXT": "%", "viability at 28.5 h, 10 µM": 103}
{"COMPOUND": "Cc1nnc(Sc2cc(C(F)(F)F)ccn2)s1", "UNITS TEXT": "%", "viability at 28.5 h, 10 µM": 87.6}
{"COMPOUND": "CC(=O)Nc1ccc(S(=O)(=O)N2CCN(Cc3ccccc3[N+](=O)[O-])CC2)cc1", "UNITS TEXT": "%", "viability at 28.5 h, 10 µM": 89.3}
{"COMPOUND": "COc1cccc(/C=N/NC(=O)C(=O)NCc2ccccn2)c1O", "UNITS TEXT": "%", "viability at 28.5 h, 10 µM": 93.5}
{"COMPOUND": "COc1ccc(SC(C)C(=O)N2CCN(c3ccc([N+](=O)[O-])nc3)CC2)cc1 (stereo not drawn)", "UNITS TEXT": "%", "viability at 28.5 h, 10 µM": 93.5}
{"COMPOUND": "Cc1cc(Br)ccc1S(=O)(=O)N(C)c1ccc(N2CCNCC2)c2ccccc12 [CBK016170C]", "UNITS TEXT": "%", "viability at 28.5 h, 10 µM": 96}
{"COMPOUND": "CCCC/C=C/c1cncc(N[C@@H](C)c2ccccc2)n1", "UNITS TEXT": "%", "viability at 28.5 h, 10 µM": 109}
